- test_system: mutEGFR (D770_N771insSVD) (Homo sapiens, UniProt P00533, INS767SVD)
- Sequence (P00533 with tags, fused parts or gaps INS767SVD limits assumed): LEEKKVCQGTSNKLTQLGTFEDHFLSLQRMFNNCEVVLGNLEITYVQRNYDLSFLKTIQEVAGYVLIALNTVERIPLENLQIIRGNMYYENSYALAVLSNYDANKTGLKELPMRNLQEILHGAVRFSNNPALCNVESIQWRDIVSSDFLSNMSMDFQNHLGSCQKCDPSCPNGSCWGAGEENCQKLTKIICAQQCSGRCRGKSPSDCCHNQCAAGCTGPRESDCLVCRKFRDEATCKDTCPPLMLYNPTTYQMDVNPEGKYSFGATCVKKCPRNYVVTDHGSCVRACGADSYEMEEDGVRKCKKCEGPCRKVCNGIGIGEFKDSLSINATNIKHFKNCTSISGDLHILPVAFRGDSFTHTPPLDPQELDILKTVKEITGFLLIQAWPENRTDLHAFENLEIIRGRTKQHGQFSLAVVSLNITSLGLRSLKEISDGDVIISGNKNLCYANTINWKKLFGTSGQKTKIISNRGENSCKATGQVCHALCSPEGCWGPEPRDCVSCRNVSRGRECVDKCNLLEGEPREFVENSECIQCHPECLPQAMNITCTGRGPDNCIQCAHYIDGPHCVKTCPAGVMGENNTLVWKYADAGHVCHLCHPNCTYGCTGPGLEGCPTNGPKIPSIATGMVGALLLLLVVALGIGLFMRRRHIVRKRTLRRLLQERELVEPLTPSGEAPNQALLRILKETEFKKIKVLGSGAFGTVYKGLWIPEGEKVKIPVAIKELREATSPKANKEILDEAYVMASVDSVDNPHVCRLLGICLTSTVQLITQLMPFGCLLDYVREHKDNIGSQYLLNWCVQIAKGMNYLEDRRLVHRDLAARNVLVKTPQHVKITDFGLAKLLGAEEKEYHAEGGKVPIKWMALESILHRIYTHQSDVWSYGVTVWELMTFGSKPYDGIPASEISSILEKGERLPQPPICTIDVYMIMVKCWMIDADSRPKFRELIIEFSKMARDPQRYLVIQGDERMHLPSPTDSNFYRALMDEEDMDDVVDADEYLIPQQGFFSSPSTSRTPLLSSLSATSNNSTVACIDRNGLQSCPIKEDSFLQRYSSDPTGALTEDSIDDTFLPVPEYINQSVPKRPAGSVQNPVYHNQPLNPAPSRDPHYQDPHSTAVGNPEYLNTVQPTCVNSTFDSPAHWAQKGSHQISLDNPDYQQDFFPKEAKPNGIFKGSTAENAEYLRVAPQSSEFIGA
- run_description: Exon20-mutant-EGFR (D770_N771insSVD) TR-FRET kinase assay
- assay_conditions: 2 mM ATP, 15 min preincubation
pIC50: −log10 of the molar value.
// reported pIC50 for each item listed
endpoint: pIC50

INSERT INTO measurements (smiles_representation, test_system, endpoint, recorded_measurement) VALUES
  ('C=CC(=O)N(C)CCOc1cnccc1-c1[nH]c2cccnc2c1-c1cccc(CC)c1', 'mutEGFR (D770_N771insSVD) (Homo sapiens, UniProt P00533, INS767SVD)', 'pIC50', 7.61),
  ('C=CC(=O)NCCOc1cnccc1-c1[nH]c2cccnc2c1-c1ccccc1', 'mutEGFR (D770_N771insSVD) (Homo sapiens, UniProt P00533, INS767SVD)', 'pIC50', 6.34),
  ('C#CC(=O)N(C)CCOc1cnccc1-c1[nH]c2cccnc2c1-c1ccccc1', 'mutEGFR (D770_N771insSVD) (Homo sapiens, UniProt P00533, INS767SVD)', 'pIC50', 7.71),
  ('C=CC(=O)N(C)CCOc1cnccc1-c1[nH]c2cccnc2c1-c1cccc(F)c1OC', 'mutEGFR (D770_N771insSVD) (Homo sapiens, UniProt P00533, INS767SVD)', 'pIC50', 6.75);

###

- test_system: mutEGFR (D770_N771insSVD) (Homo sapiens, UniProt P00533, INS767SVD)
- run_description: Exon20-mutant-EGFR (D770_N771insSVD) TR-FRET kinase assay
- assay_conditions: 2 mM ATP, 15 min preincubation
pIC50: −log10 of the molar value.
endpoint: pIC50

INSERT INTO results (compound, endpoint, recorded_measurement) VALUES
  ('C=CS(=O)(=O)N1CCC1(C)COc1cnccc1-c1[nH]c2cccnc2c1-c1cccc(C(F)(F)F)c1 (racemic)', 'pIC50', 6.98),
  ('C=CC(=O)N1CC(F)(F)C[C@H]1COc1cnccc1-c1[nH]c2cccnc2c1-c1ccccc1', 'pIC50', 9.67),
  ('C=CS(=O)(=O)N(C)CCOc1cnccc1-c1[nH]c2cccnc2c1-c1cccc(OC(F)(F)F)c1', 'pIC50', 7.95),
  ('C=CS(=O)(=O)N1CCC[C@H]1COc1cnccc1-c1[nH]c2cccnc2c1-c1cccc(C(F)(F)F)c1', 'pIC50', 9.39),
  ('C=CC(=O)N1CCC[C@@H]1COc1cnccc1-c1[nH]c2cccnc2c1-c1ccccc1', 'pIC50', 7.27),
  ('C=CC(=O)N1CCC[C@H]1COc1cnccc1-c1[nH]c2cccnc2c1-c1cccc(Cl)c1', 'pIC50', 9.50);

###

- Test system: BA/F3 (insSVD) cells
- run_description: Ba/F3 cell survival assay (Cell Titer-Glo), EGFR-insSVD
- Assay type: cell-based
- assay_conditions: 48 h, without IL-3, with EGF
pIC50: −log10 of the molar value.
endpoint: pIC50

INSERT INTO measurements (compound, endpoint, recorded_measurement) VALUES
  ('C=CC(=O)N1C[C@@H](N(C)CCN(C)C)C[C@H]1COc1cnccc1-c1[nH]c2cccnc2c1-c1ccccc1 (single isomer, unassigned) [Example 131]', 'pIC50', 7.26),
  ('C=CC(=O)N1C[C@@H](N(C)CCN(C)C)C[C@H]1COc1cnccc1-c1[nH]c2cccnc2c1-c1ccccc1 (single isomer, unassigned) [Example 132]', 'pIC50', 6.74);
